Source: patent US20150239980A1

# tested on: T1, human MCAM (melanoma cell adhesion molecule) expressed on transfected CHO cells (human, UniProt P43121 24-646)
# T1 construct: also called hMCAM; CD146
# T1 chain: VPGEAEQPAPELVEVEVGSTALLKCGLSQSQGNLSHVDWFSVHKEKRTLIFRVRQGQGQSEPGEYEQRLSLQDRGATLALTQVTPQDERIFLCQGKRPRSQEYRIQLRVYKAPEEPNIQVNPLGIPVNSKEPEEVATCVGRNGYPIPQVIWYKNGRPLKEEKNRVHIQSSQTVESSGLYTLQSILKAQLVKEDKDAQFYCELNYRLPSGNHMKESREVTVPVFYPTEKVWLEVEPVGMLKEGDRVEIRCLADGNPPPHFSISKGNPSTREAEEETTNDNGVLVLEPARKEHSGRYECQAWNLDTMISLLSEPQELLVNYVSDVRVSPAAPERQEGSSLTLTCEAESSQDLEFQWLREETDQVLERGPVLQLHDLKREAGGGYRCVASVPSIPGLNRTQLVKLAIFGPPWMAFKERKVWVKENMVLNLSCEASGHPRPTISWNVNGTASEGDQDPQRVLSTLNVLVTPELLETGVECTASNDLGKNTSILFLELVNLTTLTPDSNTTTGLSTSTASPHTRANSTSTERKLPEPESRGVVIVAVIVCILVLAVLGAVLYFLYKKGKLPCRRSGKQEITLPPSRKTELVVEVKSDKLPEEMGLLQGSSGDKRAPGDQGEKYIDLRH
# assay overview: summary of laminin blocking assay on hMCAM CHO cells, competitor laminin 411; vs rodent 1749
measure name: fold reduction in potency compared to the rodent

Inquiry: What fold reduction in potency compared to the rodent value was documented for this binder, h1749VH2 + h1749VL1 (antibody, human IgG1, V domains shown, also called h1749VH2VL1) VH: EVQLVESGGGLVQPGGSLRLSCAASGFTFSSYIMSWVRQAPGKRLEWVATISSGGSSTYYPDSVKGRFTISRDNAKNSLYLQMNSLRAEDTAVYYCTRDDDYDVKVFAYWGQGTMVTVSS VL: DIVMTQSPDSLAVSLGERATINCKSSRSLLNSRIRKNYLAWYQQKPGQPPKLLIYWASTRESGVPDRFSGSGSGTDFTLTISSLQAEDVAVYYCKQSYNLLTFGQGTKVEIK ?
Reply text: < 2 fold
